method: protein stability index of a GFP-peptide fusion (GPS, HEK-293T) (PSI 1-6); higher = more stable;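 also: 24-mer peptide tiles fused after GFP, lentivirally expressed, FACS-sorted into six equal bins by GFP/DsRed ratio, decoded by Illumina sequencing, PSI is the read-weighted mean bin number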
condition_description: treatment: MLN4924 1 uM, 8 h; c terminus: a fixed tail appended
Tag: true if measured protein stability index is not below 3, false if it is.

INSERT INTO measurements (input_sequence, discrete_label) VALUES
  ('LGNLVEGMDFHRFYFENALSKSNK [CAMK2D]', 'true'),
  ('PDFCHKFLPGYVGGIQEGAVTPAG [DHCR7]', 'true'),
  ('PNIVVAIAGNKCDLIDVREVMERD [RAB22A]', 'true'),
  ('PAPALAPDQLPQNNTLVALPIVAI [FBXO28]', 'false'),
  ('ASTVLKSVGFQSNEAASLASTGVG [SLC2A12]', 'true'),
  ('SHLSNGLDPVAETAIRQLTEPSGR [C2CD2L]', 'true'),
  ('ELGSESQGASESQAPGEENLLGEA [HDAC6]', 'true'),
  ('KKRMRYFDPLRNEYFFDRNRPSFD [KCNA1]', 'false'),
  ('KERDLRDVGDWRKNIEEKSGMEGR [TNNI2]', 'true'),
  ('AKQIMEETYKMEFMYSGVENKQVV [INTS4]', 'false'),
  ('LARLEERSSEFYRVTTEQYQKAAE [CHCHD3]', 'true'),
  ('LLNSPPSFVCWSRGFMEMNGRGEL [AUP1]', 'false'),
  ('EAFTLMDQNRDGFIDKEDLKDTYA [MYL5]', 'true'),
  ('DVHNRIVIRGLNTIPLFVQLLYSP [CTNNB1]', 'false'),
  ('VAKLESECLKRQGQREPGSLSRNN [FBXO34]', 'true'),
  ('MNGHQNGLDSPPLYPSAPILGGSG [ESRRG]', 'true'),
  ('LGYAASLEASVQDDAGTSGGPSSP [C2CD2L]', 'true'),
  ('GFRYSERYDPEPKSKWDEEWDKNK [CLINT1]', 'true'),
  ('TDCGKAFLKKSQLTEHKRIHTGKK [ZNF649]', 'true'),
  ('TISEFILSEDYNKMTPVKNYQAHQ [WDFY2]', 'false'),
  ('GYLLSFHTPGGQNQEILLPGGITS [TNXB]', 'false'),
  ('DDSGKDKKKKTKKIKEKYIDQEEL [HSP90AB1]', 'true'),
  ('AEPGALGEPGAAAPAMYDDESAID [CEBPD]', 'true'),
  ('VQKSIYSEFLKRFVEATRKWKVGI [ALDH8A1]', 'false'),
  ('QKEQQERLREAAALGDIREVQKLV [ANKRD40]', 'true'),
  ('VLSESSGPSNTSHSSSRDSHLSNG [C2CD2L]', 'true'),
  ('SDNSWVLAGSESLPVETLGPASRM [PBXIP1]', 'true'),
  ('QQKLVIDTVTEVTARMEMLIEELY [CBY2]', 'false'),
  ('ELTLSKTDLEMQIESLNEELAYMK [KRT13]', 'true'),
  ('YSLQMKRVIACQKTAHDSNVLHVA [WDR41]', 'false'),
  ('ETHRAPDLVQWTRHMEAVKAQLLE [SOAT2]', 'true'),
  ('YQPAPYFAAEARYPIYVIPEPPPV [TENT5D]', 'false'),
  ('IEREVNILREIRHPNIITLHDIFE [DAPK3]', 'false'),
  ('DSIKTEVSGCPEDLTVGRAPTADD [NOL4L]', 'true'),
  ('ACYFGHRQVVQDLLKAGAEVNVLN [OSBPL1A]', 'false'),
  ('KNSMENGRPPDPADWAVMDVVNYF [SAMD13]', 'true'),
  ('YLHTVSDCDTSSICEDSFDGRSLS [SCARA5]', 'true');
